Listed here: items and their measured pIC50.
# Experimental target: UniProtKB Q06187
# Sequence (Q06187 whole entry): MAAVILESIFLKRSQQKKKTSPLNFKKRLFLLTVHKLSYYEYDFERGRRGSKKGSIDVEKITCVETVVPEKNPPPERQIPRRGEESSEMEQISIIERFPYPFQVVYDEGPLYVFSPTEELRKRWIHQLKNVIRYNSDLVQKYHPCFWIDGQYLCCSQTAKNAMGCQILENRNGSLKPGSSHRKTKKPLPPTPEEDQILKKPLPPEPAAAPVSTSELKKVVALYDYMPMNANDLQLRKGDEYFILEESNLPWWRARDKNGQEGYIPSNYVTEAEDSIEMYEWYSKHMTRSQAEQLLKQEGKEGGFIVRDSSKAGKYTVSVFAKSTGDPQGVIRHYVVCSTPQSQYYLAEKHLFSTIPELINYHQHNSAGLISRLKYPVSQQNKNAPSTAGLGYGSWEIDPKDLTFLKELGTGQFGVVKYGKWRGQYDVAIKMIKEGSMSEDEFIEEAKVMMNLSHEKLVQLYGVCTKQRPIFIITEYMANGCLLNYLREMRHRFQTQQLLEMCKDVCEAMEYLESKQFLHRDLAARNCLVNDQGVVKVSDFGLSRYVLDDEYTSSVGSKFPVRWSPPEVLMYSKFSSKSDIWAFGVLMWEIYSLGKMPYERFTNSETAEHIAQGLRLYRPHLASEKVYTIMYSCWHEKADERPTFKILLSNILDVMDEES
pIC50: −log10 of the molar value.

Use these answered entries as a reference point.
{"Molecule": "NC(=O)c1c(-c2ccc(Oc3ccccc3)cc2)nn(C2CCCCC2)c1N", "Data value": "> 7.00"}
{"Molecule": "CN(CCn1nc(-c2ccc(Oc3ccccc3)cc2)c(C(N)=O)c1N)C(=O)CCl", "Data value": "> 7.00"}
{"Molecule": "C#CC(=O)N1CCCC(n2nc(-c3ccc(Oc4ccccc4)cc3)c(C(N)=O)c2N)C1 (stereo not shown)", "Data value": "> 7.00"}
{"Molecule": "C=CC(=O)N1CC[C@@H](n2nc(-c3ccc(Oc4cc(F)cc(F)c4)cc3)c(C(N)=O)c2N)C1", "Data value": "> 7.00"}
{"Molecule": "C=CS(=O)(=O)N1CCC[C@@H](n2nc(-c3ccc(Oc4ccccc4)cc3)c(C(N)=O)c2N)C1 [27 (R-isomer)]", "Data value": "> 7.00"}

Field: next molecule
Challenge: Looking for the measured pIC50 of C#CC(=O)N(C)CCn1nc(-c2ccc(Oc3ccccc3)cc2)c(C(N)=O)c1N , can you help?
Response given: > 7.00
